Entries and their Kd
- experimental_target: T1, rhesus serum albumin (rhesus, UniProt Q28522 17-600)
- T1 construct: also called RhSA
- method_summary: SPR, single cycle kinetics, pH 5.5
Your answer should be a plain number; it is taken to be in nM.

>>> endpoint_result("M79-H5 (VHH) VHH: QVQLVESGGGLVQPGGSLRLSCAASGSTFSSSSVGWYRQAPGQQRELVAAITSGGSTNTADSVKGRFTISRDNAKNTVYLQMNSLRAEDTAVYYCNVAGRNWVPISRYSPGPYWGQGTLVTVSS")
4.2
>>> endpoint_result("Rh46-H2 (VHH) VHH: EVQLVESGGGLVQPGGSLRLSCAASTRTFSSYIMGWFRQAPGKERELVSAISWSGRMTHYADSVKGRFTISRDNSKNTLYLQMNSLRAEDTAVYYCAADRTTAWGAPRSQYDSWGQGTLVTVS")
44.1
>>> endpoint_result("Rh46 sdAb (VHH, also called Rh46 VHH) VHH: QVKLEESGGGLVQAGGSLRLSCTASTRTFSSYIMGWFRQAPGKERELVAAISWSGRMTHYADSVKGRFAISRDNAKNTVYLQMNVLKPEDTAIYSCAADRTTAWGAPRSQYDSWGQGTQVTVSS")
29.6

Which Kd value belongs to Rh34-H2 (VHH) VHH: EVQLVESGGGLVQPGGSLRLSCAASGRTISLYAVGWFRQAPGKEREFVSAISWTDSSTYYADSVKGRFTISRDNSKNTLYLQMNSLRAEDTAVYYCAADVSIRGLQKYEYDYWGQGTLVTVS ?
3080

Which Kd value belongs to Rh46-H4 (VHH) VHH: QVQLVESGGGLVQPGGSLRLSCAASTRTFSSYIMGWFRQAPGKERELVAAISWSGRMTHYADSVKGRFTISRDNSKNTLYLQMNSLRAEDTAIYSCAADRTTAWGAPRSQYDSWGQGTLVTVSS ?
25.2

Which Kd value belongs to Rh34-H5 (VHH) VHH: QVQLVESGGGLVQPGGSLRLSCAASGRTISLYAVGWFRRAPGKEREFVAAISWTDSSTYYADSVKGRFTISRDNAKNTVYLQMNSLRAEDTAVYYCAADVSIRGLQKYEYDYWGQGTLVTVS ?
1420

Which Kd value belongs to M79-H4 (VHH) VHH: QVQLVESGGGLVQPGGSLRLSCAASGSTFSSSSVGWYRQAPGQQRELVAAITSGGSTNTADSVKGRFTISRDNSKNTLYLQMNSLRAEDTAVYYCNVAGRNWVPISRYSPGPYWGQGTLVTVSS ?
2.9

Which Kd value belongs to Rh46-H5 (VHH) VHH: QVQLVESGGGLVQPGGSLRLSCAASTRTFSSYIMGWFRQAPGKERELVAAISWSGRMTHYADSVKGRFTISRDNAKNTVYLQMNSLRAEDTAIYSCAADRTTAWGAPRSQYDSWGQGTLVTVSS ?
24.1
